- Assayed Target: FGFR4 (Homo sapiens (Human))
- Sequence (P22455 22-802): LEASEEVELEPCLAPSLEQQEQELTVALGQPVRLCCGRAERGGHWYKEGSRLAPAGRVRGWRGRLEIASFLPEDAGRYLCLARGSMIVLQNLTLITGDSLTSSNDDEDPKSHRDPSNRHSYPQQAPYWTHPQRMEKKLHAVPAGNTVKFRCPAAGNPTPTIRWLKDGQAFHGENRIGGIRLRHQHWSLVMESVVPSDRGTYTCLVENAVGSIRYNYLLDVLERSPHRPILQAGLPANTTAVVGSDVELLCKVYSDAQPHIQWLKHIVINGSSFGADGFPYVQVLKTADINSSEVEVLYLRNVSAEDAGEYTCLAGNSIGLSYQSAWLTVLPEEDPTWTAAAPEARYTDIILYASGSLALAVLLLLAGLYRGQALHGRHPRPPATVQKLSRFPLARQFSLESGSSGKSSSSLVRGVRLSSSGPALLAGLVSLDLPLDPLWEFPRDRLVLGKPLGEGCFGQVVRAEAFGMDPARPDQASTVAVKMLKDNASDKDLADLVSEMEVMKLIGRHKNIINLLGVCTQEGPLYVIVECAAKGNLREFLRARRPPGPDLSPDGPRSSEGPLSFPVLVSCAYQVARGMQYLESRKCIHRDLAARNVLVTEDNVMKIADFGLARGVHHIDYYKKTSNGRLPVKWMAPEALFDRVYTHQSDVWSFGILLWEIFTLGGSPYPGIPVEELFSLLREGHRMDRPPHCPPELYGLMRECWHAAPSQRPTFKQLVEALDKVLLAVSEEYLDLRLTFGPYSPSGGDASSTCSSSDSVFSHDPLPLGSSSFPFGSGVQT
- Assay Remarks: FGFR Enzymatic Assay (FRET peptide phosphorylation), FGFR4
- Format: biochemical
- Particulars: pre-incubated for 4 hours
Measurement Kind: IC50

Look over these answered cases.
>  <Compound>
CCn1cc(N2C(=O)N(c3c(F)c(OC)cc(OC)c3F)Cc3cnc(-c4cn(C)nc4C)cc32)cn1 [Example 131]

>  <IC50>
> 200 nM

$$$$
>  <Compound>
COc1cc(OC)c(F)c(N2Cc3cnc(-c4cn(C)nc4C)cc3N(Cc3ccc(C#N)nc3)C2=O)c1F [Example 74]

>  <IC50>
30 to 200 nM

$$$$
>  <Compound>
COc1cc(OC)c(F)c(N2Cc3cnc(-c4cnn(CC5CN(C(C)=O)C5)c4)cc3C3(CC3)C2=O)c1F [Example 167]

>  <IC50>
10 to 30 nM

$$$$
>  <Compound>
COc1cc(OC)c(F)c(N2Cc3cnc(-c4cn(C)nc4C)cc3N(c3ccc4nc(C)oc4c3)C2=O)c1F [Example 75]

>  <IC50>
30 to 200 nM

$$$$
>  <Compound>
CCN1C(=O)N(c2c(F)c(OC)cc(OC)c2F)Cc2cnc(-c3ccc(CC#N)cc3)cc21 [Example 180]

>  <IC50>
10 to 30 nM

$$$$

Name the recorded IC50 of the item COc1cnc(N2C(=O)N(c3c(F)c(OC)cc(OC)c3F)Cc3cnc(-c4cn(C)nc4C)cc32)cn1 [Example 112] in your answer. 30 to 200 nM

Name the recorded IC50 of the item COc1cc(OC)c(F)c(N2Cc3cnc(-c4cn(C)nc4C)cc3N(c3ccc(F)cc3)C2=O)c1F [Example 40] in your answer. 30 to 200 nM
